Kindly supply the reported emission maximum values for the records listed here.
# Test Method Notes: solvent given as SMILES
# Reported Conditions: in CC(C)O
Field: numeric (nm). Do not append units.

*Q* Query (compound): `O=C([O-])c1c(Cl)c(Cl)c(Cl)c(Cl)c1-c1c2cc(I)c(=O)c(I)c-2oc2c(I)c([O-])c(I)cc12` ; field requested: emission maximum
*A* 576

*Q* Query (compound): `CCCCN1c2ccccc2Sc2cc(/C=C/C3=Nc4ccc5ccccc5c4C3(C)C)ccc21` ; field requested: emission maximum
*A* 602

*Q* Query (compound): `CCNc1ccc2c(C(F)(F)F)cc(=O)oc2c1` ; field requested: emission maximum
*A* 490

*Q* Query (compound): `O=S(=O)([O-])c1cc([O-])c2ccc3c(S(=O)(=O)[O-])cc(S(=O)(=O)[O-])c4ccc1c2c34` ; field requested: emission maximum
*A* 511.01

*Q* Query (compound): CC1(C)Oc2c(c3nc4ccccc4nc3c3ccccc23)CC1Br (stereo not given) ; field requested: emission maximum
*A* 464.25

*Q* Query (compound): `Cc1cc(C2(c3cc(C)c(O)c(Br)c3)OS(=O)(=O)c3ccccc32)cc(Br)c1O` ; field requested: emission maximum
*A* 498

*Q* Query (compound): `CN(C)c1ccc(/C=C2\CC/C(=C\c3ccc(C#N)cc3)C2=O)cc1` ; field requested: emission maximum
*A* 647

*Q* Query (compound): `O=C([O-])c1ccccc1-c1c2cc(I)c(=O)c(I)c-2oc2c(I)c([O-])c(I)cc12` ; field requested: emission maximum
*A* 557

*Q* Query (compound): `COc1nc(Nc2ccc3c4c(cccc24)C(=O)c2ccccc2-3)nc(OC)n1` ; field requested: emission maximum
*A* 576.04

*Q* Query (compound): `N#Cc1c[nH]c2ccccc12` ; field requested: emission maximum
*A* 315

Hello, the source for this data is the Deep4Chem optical property database, in case you need it.
